System: Mus musculus
Assay: Anticonvulsant activity was evaluated by the maximal electroshock test in mice, administered orally
Format: functional
Settings: po
Just so you know, the groups by ED50 go like this: low band = under 30 mg/kg, middle band = from 30 mg/kg up to 40 mg/kg, high band = 40 mg/kg and over

[[record]]
compound = "O=C(Cn1ccnc1)c1ccc(Cl)cc1Cl"
answer_label = "high band"

[[record]]
compound = "Cl.O=C1NC(=O)C(c2ccccc2)(c2ccccc2)N1 [PHENYTOIN CHLORIDE]"
answer_label = "low band"

[[record]]
compound = "Cl.OC(CCn1ccnc1)c1ccc(-c2ccccc2)cc1 (stereo not drawn)"
answer_label = "high band"

[[record]]
compound = "Cl.OC(Cn1ccnc1)c1ccccc1-c1ccccc1 (stereo not drawn)"
answer_label = "low band"

[[record]]
compound = "O=C(Cn1ccnc1)c1ccc(CCc2ccccc2)cc1"
answer_label = "middle band"

[[record]]
compound = "O=C(CCn1ccnc1)c1ccc(CCc2ccccc2)cc1"
answer_label = "high band"

[[record]]
compound = "Cl.Oc1ccc(C(O)Cn2ccnc2)cc1O (stereo not drawn)"
answer_label = "high band"

[[record]]
compound = "Cl.OC(Cn1ccnc1)c1ccc(-c2ccccc2)cc1 (stereo not drawn)"
answer_label = "middle band"

[[record]]
compound = "Cl.Oc1ccc(C(O)Cn2ccnc2)cc1 (stereo not drawn)"
answer_label = "high band"

[[record]]
compound = "O=C(Cn1ccnc1)c1ccc(Cl)cc1"
answer_label = "high band"

[[record]]
compound = "CC(C)(C(=O)c1ccc(-c2ccccc2)cc1)n1ccnc1"
answer_label = "high band"


// provenance: ChEMBL document CHEMBL1121641
